Readings of pest or weed control at 140 g/ha for the listed compounds
# Test system: test plant species
# protocol_description: Post-emergent herbicidal activity test (greenhouse, foliar spray, visual growth reduction)
# Format: in vivo
# condition_description: post-emergence, 336 h, SETFA: giant foxtail (Setaria faberi), 140 g ai/ha, 14 days after application, read-out: Visual Growth Reduction (%) 14 Days After Application, SETFA

Consider the reported pest or weed control at 140 g/ha for these compounds:
item_smiles: COC(=O)c1nc(-c2ccc(C(F)(F)F)nc2F)ccc1Cl
pest or weed control at 140 g/ha: 60 to 74%

item_smiles: COC(=O)c1nc(-c2ccc(N)cc2F)c(F)cc1Cl
pest or weed control at 140 g/ha: 0 to 29%

Moving on to the next compound.
Lookup: Please give the measured pest or weed control at 140 g/ha for this compound: O=C(O)c1nc(-c2cc(F)c(C(F)(F)F)cc2Cl)c(F)cc1Cl
Found: 95 to 100%

----------
# Tested on: test plant species
# protocol_description: Post-emergent herbicidal activity test (greenhouse, foliar spray, visual growth reduction)
# Type: in vivo
# condition_description: post-emergence, 336 h, SETFA: giant foxtail (Setaria faberi), 140 g ai/ha, 14 days after application, read-out: Visual Growth Reduction (%) 14 Days After Application, SETFA
# From the text: Post-emergent Test: Seeds or nutlets of the desired test plant species were planted in Sun Gro Metro-Mix® 360 planting mixture, which typically has a pH of 6.0 to 6.8 and an organic matter content of about 30 percent, in plastic pots with a surface area of 64 square centimeters. In some aspects, to ensure good germination and healthy plants, a fungicide treatment and/or other chemical or physical treatment was applied. […]
Readings of pest or weed control at 140 g/ha for the listed molecules

molecule: COC(=O)c1nc(-c2cc(C)c(Cl)cc2Cl)ccc1Cl [F51]
pest or weed control at 140 g/ha: 0 to 29%

Lookup: Please give the measured pest or weed control at 140 g/ha for this molecule: COC(=O)c1nc(-c2cc3c(cc2Cl)OCO3)c(F)cc1Cl [F150]
Found: 30 to 44%

Lookup: Please give the measured pest or weed control at 140 g/ha for this molecule: COC(=O)c1nc(-c2ccc(SC(F)(F)F)cc2Cl)c(F)cc1Cl [F135]
Found: 85 to 94%

Lookup: Please give the measured pest or weed control at 140 g/ha for this molecule: COC(=O)c1nc(-c2ccc3[nH]ccc3c2)c(F)cc1Cl [F189]
Found: 0 to 29%

Lookup: Please give the measured pest or weed control at 140 g/ha for this molecule: COC(=O)c1nc(-c2ccc(Cl)nc2Cl)ccc1Cl [F284]
Found: 0 to 29%

----------
# Tested on: test plant species
# protocol_description: Post-emergent herbicidal activity test (greenhouse, foliar spray, visual growth reduction)
# Format: in vivo
# condition_description: post-emergence, 336 h, KCHSC: kochia (Bassia scoparia), 140 g ai/ha, 14 days after application, read-out: Visual Growth Reduction (%) 14 Days After Application, KCHSC
Readings of pest or weed control at 140 g/ha for the listed molecules

Consider the reported pest or weed control at 140 g/ha for these molecules:
item_smiles: O=C(O)c1nc(-c2cc3c(cc2F)OC(F)(F)O3)c(F)cc1Cl
experimental_target: test plant species
observed_result: 60 to 74%
--
item_smiles: COC(=O)c1nc(-c2cc3c(cc2OC)OC(F)(F)O3)c(F)cc1Cl
experimental_target: test plant species
observed_result: 30 to 44%
--
item_smiles: COC(=O)c1nc(-c2ccc(C(F)(F)F)cc2)c(F)cc1Cl
experimental_target: test plant species
observed_result: 0 to 29%
--
item_smiles: COC(=O)c1nc(-c2ccc(C#N)cc2Cl)ccc1Cl
experimental_target: test plant species
observed_result: 45 to 59%

Lookup: Please give the measured pest or weed control at 140 g/ha for this molecule: O=C(O)c1nc(-c2cc(F)c(C(F)(F)F)cc2Cl)c(F)cc1Cl
Found: 85 to 94%

Lookup: Please give the measured pest or weed control at 140 g/ha for this molecule: COC(=O)c1nc(-c2cc(F)c(C(F)(F)F)cc2F)c(Cl)cc1Cl
Found: 0 to 29%
